target: CGRP antigen; assay: cell-based or functional assay
Could you please report measured IC50 for the items listed next?
Give bare numbers, in µg/mL.

Example results:
- hu193 (antibody, V domains shown, 3E5 HC-4/3E5 LC-1) VH: QVQLVQSGAEVKKPGASVKVSCKTSGYTFTDYNMHWVRQAPGQRLEWMGYISPYNAGTAYNQKFKFRVTLTVDTSSSTAYMELSSLRSEDTAVYYCAREGLGGYWGQGTLVTVSS VL: DIVLTQSPDSLAVSLGERATINCKASQNIDYDGYTYLNWYQQKPGQPPKVLIYSIFNLESGVPDRFSGSGSGTDFTLTISSLQAEDVAVYYCQQSNEVPYTFGQGTKLEIK: 0.0775
- hu89 (antibody, V domains shown, 1F5 HC-5/3E5 LC-1) VH: QVQLVQSGAEVKKPGASVKVSCKASGYTFIDFNMHWVRQAPGQRLEWMGYIYPYNADVVYNQDFTNRVTLTVDTSSSTAYMELSSLRSEDTAVYYCAREGLGGYWGQGTLVTVSS VL: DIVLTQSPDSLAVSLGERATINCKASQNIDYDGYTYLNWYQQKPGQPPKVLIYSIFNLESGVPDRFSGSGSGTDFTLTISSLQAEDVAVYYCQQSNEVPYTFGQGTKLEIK: 0.0979
- hu84 (antibody, V domains shown, 1F5 HC-5/1F5 LC1-2) VH: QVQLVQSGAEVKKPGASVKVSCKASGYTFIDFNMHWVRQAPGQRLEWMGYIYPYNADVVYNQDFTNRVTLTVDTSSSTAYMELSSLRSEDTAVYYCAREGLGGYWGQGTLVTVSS VL: EIVLTQSPATLSLSPGERATLSCKASQNIDFDGYAYMNWYQHKPGQAPRVLIYSVFNLESGIPARFSGSGSGTDFTLTISSLEPEDFAVYYCQQSHEVPYTFGQGTKLEIK: 0.256

Moving on to the next binder.
Prompt: Please report the recorded IC50 for hu225 (antibody, V domains shown, 3C1 HC-1/3C1 LC-4) VH: QVQLVQSGAEVKKPGASVKVSCKASGYSFTGYTMNWVRQAPGQRLEWMGLINPYIGNTHYNQKFKDRVTFTVDRSSSTAYMELSSLRSEDTAVYYCARELDSGFDYWGQGTLVTVSS VL: DVVMTQSPDSLAVSLGERATINCRSSQNIVHSNADTYLEWYQQKPGQPPKLLIYKVSNRFSGVPDRFSGSGSGTDFTLTISSLQAEDVAVYYCYQGSHVPWTFGQGTKLEIK .
Response: 0.185

Where do the numbers come from? From patent US20260125454A1.
